// provenance: the supplement of paper PMC6555819

System: RXRa homodimer (NR concentration 180 nM)
Test: PBM binding z-score (relative to random genomic background probes); higher = stronger binding; sequences stand for … in GC…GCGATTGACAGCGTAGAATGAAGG
# label = bin(measured PBM binding z-score), where bins are Low (below 0.4), Medium (0.4 to below 2), High (2 or more)

| seq text | answer label |
| --- | --- |
| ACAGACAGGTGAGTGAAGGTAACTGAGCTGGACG | Medium |
| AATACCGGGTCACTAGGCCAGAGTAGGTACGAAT | High |
| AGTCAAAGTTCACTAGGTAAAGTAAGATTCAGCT | High |
| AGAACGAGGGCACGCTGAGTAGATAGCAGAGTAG | Medium |
| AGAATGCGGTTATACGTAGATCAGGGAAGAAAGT | Low |
| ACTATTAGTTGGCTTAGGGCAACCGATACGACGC | Low |
| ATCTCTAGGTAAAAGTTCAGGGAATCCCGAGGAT | High |
| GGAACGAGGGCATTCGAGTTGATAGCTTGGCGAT | Medium |
| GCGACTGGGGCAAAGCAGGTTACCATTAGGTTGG | Medium |
| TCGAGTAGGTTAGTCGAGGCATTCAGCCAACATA | Low |
| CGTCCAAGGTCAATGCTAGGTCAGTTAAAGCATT | High |
| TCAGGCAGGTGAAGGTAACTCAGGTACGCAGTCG | Low |

* * *

Measured PBM binding z-score, listed per entry for reference.
System: PPARa:RXRa (NR concentration 270 nM, RXRa partner concentration 90 nM)
Assay: PBM binding z-score (relative to random genomic background probes); higher = stronger binding; sequences stand for … in GC…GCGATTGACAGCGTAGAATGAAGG

| seq text | assayed system | PBM binding z-score |
| --- | --- | --- |
| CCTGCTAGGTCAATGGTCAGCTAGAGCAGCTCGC | PPARa:RXRa (NR concentration 270 nM, RXRa partner concentration 90 nM) | 3.04 |
| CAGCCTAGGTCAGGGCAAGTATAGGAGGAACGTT | PPARa:RXRa (NR concentration 270 nM, RXRa partner concentration 90 nM) | 2.23 |
| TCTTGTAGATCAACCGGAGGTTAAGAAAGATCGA | PPARa:RXRa (NR concentration 270 nM, RXRa partner concentration 90 nM) | 1.26 |
| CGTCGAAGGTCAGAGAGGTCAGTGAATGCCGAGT | PPARa:RXRa (NR concentration 270 nM, RXRa partner concentration 90 nM) | 4.79 |
| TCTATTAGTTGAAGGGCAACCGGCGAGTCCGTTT | PPARa:RXRa (NR concentration 270 nM, RXRa partner concentration 90 nM) | 0.966 |
| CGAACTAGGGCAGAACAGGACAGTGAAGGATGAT | PPARa:RXRa (NR concentration 270 nM, RXRa partner concentration 90 nM) | 1.4 |
| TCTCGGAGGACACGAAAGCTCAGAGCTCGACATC | PPARa:RXRa (NR concentration 270 nM, RXRa partner concentration 90 nM) | 0.0148 |

* * *

Measured PBM binding z-score, listed per entry for reference.
Test system: RARa homodimer (NR concentration 270 nM)
Experiment: PBM binding z-score (relative to random genomic background probes); higher = stronger binding; sequences stand for … in GC…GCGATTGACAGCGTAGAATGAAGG

| seq text | assayed system | PBM binding z-score |
| --- | --- | --- |
| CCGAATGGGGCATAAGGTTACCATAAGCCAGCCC | RARa homodimer (NR concentration 270 nM) | -0.315 |
| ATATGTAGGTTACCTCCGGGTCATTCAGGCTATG | RARa homodimer (NR concentration 270 nM) | 0.561 |
| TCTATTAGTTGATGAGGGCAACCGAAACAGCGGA | RARa homodimer (NR concentration 270 nM) | 0.755 |
